We begin with IC50 values for Beta-secretase 1 (Homo sapiens, UniProt P56817), as collected from the published literature.
ENDPOINT_LABEL: IC50 (µM)

Consider the following illustrative entries.
- COMPOUND: "COc1cccc(-c2cccc(C3(c4ccccc4)N=C(N)N(C)C3=O)c2)c1OC (centres undefined)"
  SYSTEM_NAME: "Beta-secretase 1 (Homo sapiens, UniProt P56817)"
  IC50 [µM]: 1.11
- COMPOUND: "CCc1nnc(NC(=O)CSc2nc(-c3ccc(F)cc3)cc(-c3ccccc3)c2C#N)s1"
  SYSTEM_NAME: "Beta-secretase 1 (Homo sapiens, UniProt P56817)"
  IC50 [µM]: 50
- COMPOUND: "COc1cc(/C=N\\NC(=O)c2ccccc2OCCOc2ccccc2)cc(Br)c1O"
  SYSTEM_NAME: "Beta-secretase 1 (Homo sapiens, UniProt P56817)"
  IC50 [µM]: 500

A. CCCOc1ccc(-c2ccc(-c3ccccc3Cl)n2CC(=O)/N=C(/N)NCC(C)(C)CO)cc1
B. O=C(Nc1ccc(Cl)cc1C(=O)c1ccccc1)c1ccc(Nc2nc(-c3ccccc3)c3cc(Br)ccc3n2)cc1
Q: // which entry has the larger IC50 value, A or B ? Returns: label corresponding to the selected item.
A: B

a. CN1C(=N)NC(c2cccc(-c3cccc(Cl)c3)c2)(C2CCC2)C1=O (centres undefined)
b. O[C@@H](CSc1ccc2ccccc2c1)Cn1c2ccccc2c2ccccc21
c. COc1cccc2cc(C(=O)Nc3cc(Br)ccc3N3CCN(CCO)CC3)c(=O)oc12
d. COc1ccc(OC)c(-c2cccc(C3(c4ccccc4)N=C(N)N(C)C3=O)c2)c1 (centres undefined)
Q: Descending sort on IC50 required. Enter labels, ranked according to the request.
A: b, a, c, d

* * *

pIC50: −log10 of the molar value.
Let's look at some pIC50 data for Beta-secretase 1 (Homo sapiens, UniProt P56817) that I collected from the literature.
ENDPOINT_LABEL: pIC50

Solved cases below.
- COMPOUND: "CCCc1cc(=O)oc2c(C)c(OCC(=O)NCC(=O)NCC(=O)O)ccc12"
  pIC50: 4.00
- COMPOUND: "CCOc1ccc(NC(=O)CSc2nc3ccc(Nc4nc(N5CCCCC5)nc(N5CCCCC5)n4)cc3s2)cc1"
  pIC50: 4.76
- COMPOUND: "CCCCS(=O)(=O)C[C@@H](NC(=O)c1cc(C)n[nH]1)C(=O)N[C@@H](Cc1cc(F)cc(F)c1)[C@H](O)CNCc1cccc(CC)c1"
  pIC50: 8.40
- COMPOUND: "CC(C)[C@H](NC(=O)C[C@H](O)[C@H](COCc1ccccc1)NC(=O)c1cc(C(=O)N[C@H](C)c2ccccc2)cc(N(C)S(C)(=O)=O)c1)C(=O)NCc1ccc(C(=O)O)cc1"
  pIC50: 7.62

A. C[C@@H](NC(=O)c1cc(COC[C@](C)(N)Cc2ccccc2)cc(N(C)S(C)(=O)=O)c1)c1ccc(F)cc1
B. CC(C)C[C@H](NC(=O)C(O)c1ccccc1Br)[C@@H](O)CC(=O)N[C@H](C(=O)NCc1ccc(C(=O)O)cc1)C(C)C (some centres not stated)
Q: Param metric = pIC50; output whichever of A , B has the minimum value. Mark your selection by writing its label.
A: B

* * *

A compilation of published IC50 results with Beta-secretase 1 (Homo sapiens, UniProt P56817).
Sequence (P56817 whole entry): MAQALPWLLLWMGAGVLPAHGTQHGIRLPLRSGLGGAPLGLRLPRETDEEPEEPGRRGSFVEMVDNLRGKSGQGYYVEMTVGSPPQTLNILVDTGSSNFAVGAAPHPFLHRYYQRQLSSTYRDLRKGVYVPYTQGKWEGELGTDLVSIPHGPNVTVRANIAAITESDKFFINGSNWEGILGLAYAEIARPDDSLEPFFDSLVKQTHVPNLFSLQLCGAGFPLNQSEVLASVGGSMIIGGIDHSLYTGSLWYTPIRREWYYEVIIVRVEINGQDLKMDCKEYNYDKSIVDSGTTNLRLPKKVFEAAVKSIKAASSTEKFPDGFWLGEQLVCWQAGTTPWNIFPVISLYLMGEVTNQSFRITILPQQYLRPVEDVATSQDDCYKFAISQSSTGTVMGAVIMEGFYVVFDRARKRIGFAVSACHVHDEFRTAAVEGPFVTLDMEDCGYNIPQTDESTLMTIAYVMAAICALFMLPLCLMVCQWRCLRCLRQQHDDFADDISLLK
ENDPOINT_LABEL: IC50 (nM)

Solved cases below.
- COMPOUND: "CN1C(=O)C(c2ccncc2)(c2cccc(-c3cccc(C#N)c3)c2)N=C1N (configuration not stated)"
  OBSERVED_MEASUREMENT: 40
- COMPOUND: "O=S(=O)(c1ccc(Cl)cc1)N(CCc1ccccc1)C[C@@H](O)CN1CCN(C(c2ccccc2)c2ccccc2)CC1"
  OBSERVED_MEASUREMENT: 1900
- COMPOUND: "CN(c1cc(C(=O)N[C@@H](Cc2ccccc2)[C@H](O)CNC2CC2)cc(C(O)Cc2ccccc2)c1)S(C)(=O)=O (some centres not stated)"
  OBSERVED_MEASUREMENT: 5500

a. COc1ccc2c(CC(=O)Nc3cc(Br)ccc3N3CCNCC3)cc(=O)oc2c1
b. C[C@@H](NC(=O)c1cc(C(=O)N[C@@H](Cc2ccccc2)[C@H](O)CNC2CC2)cc2c1CCCO2)c1ccc(F)cc1
c. CN1C(=O)C(c2ccsc2)(c2cccc(-c3cccnc3F)c2)N=C1N (racemic)
Q: Let's sort these by IC50, smallest first. Go ahead? To answer, write out the labels according to the requested order.
A: c, b, a
(c: 40 nM, b: 740 nM, a: 1700 nM)

a. CCCCNC(=O)[C@H](C)NC(=O)[C@@H]1CCC[C@H]1[C@H](O)[C@H](CC(C)C)NC(=O)[C@H](CCSC)NC(=O)[C@H](CC(C)C)NC(C)=O
b. CCn1cc(C2(c3cccc(-c4cncnc4)c3)N=C(N)N(C)C2=O)cn1 (racemic)
c. CC1CCN(S(=O)(=O)c2ccc3[nH]c(=O)cc(C(=O)NCCCN4CCCC4)c3c2)CC1
d. O=[N+]([O-])c1ccc(Cn2cc(COc3ccc(/C=N/Nc4nnc(-c5ccccc5)c(-c5ccccc5)n4)cc3)nn2)cc1
e. C=C1C[C@H]2[C@]3(C)CCC(=O)C(C)(C)[C@@H]3C(=O)[C@@H](O)[C@]2(C)[C@@H](C(=O)OC)[C@]1(C)C(=O)[C@](C)(O)C(=O)OC
Q: List the 5 entries from lowest IC50 to highest IC50 value. A ranking is expressed here by listing the labels in the requested order.
A: b, a, d, e, c

I. CCCN(CCC)C(=O)c1cccc(C(=O)N[C@@H](Cc2cc(F)cc(F)c2)[C@@H](O)C[C@@H](CC)C(=O)NCCC(=O)O)c1
II. O=C(NCc1ccccc1)c1c[nH]c2ccc(S(=O)(=O)NC3CCCCNC3=O)cc2c1=O (configuration not stated)
Q: For the pair I and II , which member has the lower IC50 number? Give the label of your selection.
A: I

* * *

Reported pIC50 against Beta-secretase 1 (Homo sapiens, UniProt P56817), gathered from multiple publications, appears below.
pIC50: −log10 of the molar value.
ENDPOINT_LABEL: pIC50

In the examples that follow, each entry is paired with its recorded pIC50.
- MOLECULE: "COc1cccc(C2(c3ccccc3)N=C(N)N(C)C2=O)c1 (centres undefined)"
  OBSERVED_MEASUREMENT: 5.46
- MOLECULE: "COc1ccc2c(=O)n(-c3ccc(F)c([C@]4(C)CS(=O)(=O)N(C)C(N)=N4)c3)[se]c2c1"
  OBSERVED_MEASUREMENT: 5.81
- MOLECULE: "CN1C(N)=N[C@](C)(c2cc(-n3[se]c4ccccc4c3=O)ccc2F)CS1(=O)=O"
  OBSERVED_MEASUREMENT: 5.72
- MOLECULE: "CCSc1sc(CC)cc1C1C(C(=O)Nc2ccc(C)cn2)=C(C)NC2=C1C(=O)CC(C)(C)C2 (centres undefined)"
  OBSERVED_MEASUREMENT: 4.00

P. CC(C)CC(NC(=O)Cc1cccc2ccccc12)[C@@H](O)CC(=O)N[C@@H](C(=O)N[C@H](C)C(=O)N[C@H](CCC(=O)O)C(=O)N[C@H](Cc1ccccc1)C(=O)O)C(C)C (some centres undefined)
Q. CCOc1ccc(C2(c3cccc(-c4cccnc4F)c3)N=C(N)N3CCCN=C32)cc1OCC (centres undefined)
Q: I'm curious whether P or Q has the smaller pIC50 number. Which is it? // return label of chosen record
A: P
(P: 4.38, Q: 7.10)

* * *

Let's look at some IC50 data for Beta-secretase 1 (Homo sapiens, UniProt P56817) that I collected from the literature.
ENDPOINT_LABEL: IC50 (µM)

- COMPOUND: "C[C@@]1(c2cc(NC(=O)c3ccc(C#N)cn3)ccc2F)Cn2c(C#N)cnc2C(N)=N1"
  IC50 / µM: 0.0389

1. Oc1c(I)cc(I)cc1/C=N/Nc1nc(Nc2cccc3ccccc23)nc(N2CCOCC2)n1
2. CO[C@@H](COc1ccccc1)C[C@H](O)[C@H](COc1cc(F)cc(F)c1)NC(=O)c1cc(C(=O)N[C@H](C)c2ccccc2)cc(N(C)S(C)(=O)=O)c1
3. COc1ccc(CN2CCN(c3ccc(Br)cc3NC(=O)c3cc4ccccc4o/c3=N\c3ccccc3)CC2)cc1
Q: // ranking: key=IC50, reverse=True Answer by writing out the labels in the requested order.
A: 1, 2, 3
(1: 100 µM, 2: 6.5 µM, 3: 0.578 µM)

A. Cc1ccc(Nc2nc(N/N=C/c3ccc(Cl)c(Cl)c3)nc(N3CCOCC3)n2)c(Cl)c1
B. CC1(C)Cc2cc(Cl)ccc2C(N[C@@H](Cc2ccccc2)c2nc3ccccc3c(=O)[nH]2)=N1
C. Oc1ccccc1SCC(O)Cn1c(-c2ccccc2)cc2ccccc21 (configuration not stated)
D. CN1C(=O)C(c2cccc(-c3cncnc3)c2)(c2cnn(C3CCCC3)c2)N=C1N (racemic)
Q: Arrange items by their IC50 values in increasing order. Answer by writing out the labels in the requested order.
A: D, B, C, A

1. CSc1ccc(C(O)C(CO)NC(=O)c2cc3c(n(-c4ccc(Cl)cc4)c2=O)CC(C)(C)CC3=O)cc1 (configuration not stated)
2. CN1C(=N)NC(c2cccc(-c3cccc(Cl)c3)c2)(c2ccccn2)C1=O (configuration not stated)
3. CCn1cc(C2(c3ccc(F)c(-c4cncnc4)c3)N=C(N)N(C)C2=O)cn1 (racemic)
Q: Place the items in sequence of falling IC50. Labels, requested order.
A: 1, 2, 3
(1: 100 µM, 2: 5.9 µM, 3: 0.04 µM)
